The measured values listed here are drawn from ChEMBL document CHEMBL1148520.

# System: HFF
# Measurement Description: Cytotoxicity against HFF cell line by neutral red toxicity assay
# Format: functional
# Details: Homo sapiens
Endpoint Name: CC50

Using the record for CC(=O)OC[C@H]1OC(n2cc(C=O)c(=O)[nH]c2=O)C[C@@H]1OC(C)=O (stereo partly drawn) , report its CC50. > 300 µM

***
Item under review: `O=Cc1cn([C@H]2C[C@H](O)[C@@H](CO)O2)c(=O)[nH]c1=O` . Reported CC50? > 300 µM

What about this compound? CCOC(OCC)c1cn(C2C[C@H](OC(C)=O)[C@@H](COC(C)=O)O2)c(=O)[nH]c1=O (stereo partly drawn) > 300 µM
